- Tested on: PSEUDOMONAS CEPACIA 296I
- test.protocol: In vitro antibacterial activity, MIC, BHI agar dilution
- Type: cell-based
- condition.context: P. cepacia 296I, unit assumed
reported.property: MIC (mg/L)
State the answer as a number, implicitly in mg/L.

Recorded MIC, per entry:
structure.string	system	recorded.value
CC[C@H]1OC(=O)[C@H](C)C(=O)[C@H](C)[C@@H](O[C@@H]2O[C@H](C)C[C@H](N(C)C)[C@H]2O)[C@](C)(OC)C[C@@H](C)C2=N[C@H](COCc3cccc(Br)c3)CN3C(=O)O[C@@]1(C)[C@H]3[C@H]2C	PSEUDOMONAS CEPACIA 296I	100
CC[C@H]1OC(=O)[C@H](C)C(=O)[C@H](C)[C@@H](O[C@@H]2O[C@H](C)C[C@H](N(C)C)[C@H]2O)[C@](C)(OC)C[C@@H](C)C2=NC[C@@H](Cc3ccccc3)N3C(=O)O[C@@]1(C)[C@H]3[C@H]2C	PSEUDOMONAS CEPACIA 296I	50
CC[C@H]1OC(=O)[C@H](C)C(=O)[C@H](C)[C@@H](O[C@@H]2O[C@H](C)C[C@H](N(C)C)[C@H]2O)[C@](C)(OC)C[C@@H](C)C2=NC[C@H](CSCc3ccccc3)N3C(=O)O[C@@]1(C)[C@H]3[C@H]2C	PSEUDOMONAS CEPACIA 296I	100

Moving on to another molecule below.
Incoming: Please look up its MIC: CC[C@H]1OC(=O)[C@H](C)C(=O)[C@H](C)[C@@H](O[C@@H]2O[C@H](C)C[C@H](N(C)C)[C@H]2O)[C@](C)(OC)C[C@@H](C)C2=N[C@H](COCc3ccc(Cl)cc3)CN3C(=O)O[C@@]1(C)[C@H]3[C@H]2C
Outgoing: 100

----------
- System: PROVIDENCIA STUARTII CMX 640
Form field: MIC (one value per entry).

compound	reported.property	recorded.value
CC[C@H]1OC(=O)[C@H](C)C(=O)[C@H](C)[C@@H](O[C@@H]2O[C@H](C)C[C@H](N(C)C)[C@H]2O)[C@](C)(OC)C[C@@H](C)C2=N[C@H](Cc3ccccc3)CN3C(=O)O[C@@]1(C)[C@H]3[C@H]2C [Example 3]	MIC	> 100 µg/mL
CCC1OC(=O)C(C)C(=O)C(C)C(OC2OC(C)CC(N(C)C)C2O)C(C)(OC)CC(C)C2=NCC(COCc3ccccc3F)N3C(=O)OC1(C)C3C2C (centres unmarked) [Example 73]	MIC	> 100 µg/mL
CC[C@H]1OC(=O)[C@H](C)C(=O)[C@H](C)[C@@H](O[C@@H]2O[C@H](C)C[C@H](N(C)C)[C@H]2O)[C@](C)(OC)C[C@@H](C)C2=N[C@H](COCc3ccc(C#N)cc3)CN3C(=O)O[C@@]1(C)[C@H]3[C@H]2C [Example 74]	MIC	> 100 µg/mL
CCC1OC(=O)C(C)C(=O)C(C)C(OC2OC(C)CC(N(C)C)C2O)C(C)(OC)CC(C)C2=NC(CN(C)C)CN3C(=O)OC1(C)C3C2C (centres unmarked) [Example 97]	MIC	> 100 µg/mL

Incoming: Returns the measured MIC for the input compound. Input: CCC1OC(=O)C(C)C(=O)C(C)C(OC2OC(C)CC(N(C)C)C2O)C(C)(OC)CC(C)C2=NC(COCc3ccc(N(C)C)cc3)CN3C(=O)OC1(C)C3C2C (centres unmarked) [Example 76]
Outgoing: > 100 µg/mL

----------
- Tested on: KLEBSIELLA PNEUMONIAE ATCC 8045
- test.protocol: In vitro antibacterial activity, MIC, BHI agar dilution
- Type: cell-based
- condition.context: K. pneumoniae ATCC 8045, unit assumed
reported.property: MIC

Some solved cases for reference:
molecule	MIC
CCC1OC(=O)C(C)C(=O)C(C)C(OC2OC(C)CC(N(C)C)C2O)C(C)(OC)CC(C)C2=NC(COCc3ccc(N(C)C)cc3)CN3C(=O)OC1(C)C3C2C (stereo not shown) [Example 76]	> 100 µg/mL
CC[C@H]1OC(=O)[C@H](C)C(=O)[C@H](C)[C@@H](O[C@@H]2O[C@H](C)C[C@H](N(C)C)[C@H]2O)[C@](C)(OC)C[C@@H](C)C2=NC3CN(CC(OC)OC)CC3N3C(=O)O[C@@]1(C)[C@H]3[C@H]2C (stereo partly shown) [Example 127]	> 100 µg/mL
CC[C@H]1OC(=O)[C@H](C)C(=O)[C@H](C)[C@@H](O[C@@H]2O[C@H](C)C[C@H](N(C)C)[C@H]2O)[C@](C)(OC)C[C@@H](C)C2=NC[C@H](Cc3ccc(O)cc3)N3C(=O)O[C@@]1(C)[C@H]3[C@H]2C [Example 65]	> 100 µg/mL

# ---- query molecule ----
Incoming: MIC of CC[C@H]1OC(=O)[C@H](C)C(=O)[C@H](C)[C@@H](O[C@@H]2O[C@H](C)C[C@H](N(C)C)[C@H]2O)[C@](C)(OC)C[C@@H](C)C2=NCC(COC(=O)c3ccnc4ccccc34)N3C(=O)O[C@@]1(C)[C@H]3[C@H]2C (stereo partly shown) [Example 137] on KLEBSIELLA PNEUMONIAE ATCC 8045?
Outgoing: 100 µg/mL

----------
Catalogue of MIC values
- System: STREPTOCOCCUS PYOGENES PIU 2548
- test.protocol: In vitro antibacterial activity, MIC, BHI agar dilution
- Type: cell-based
- condition.context: S. pyogenes PIU 2548, unit assumed
I'd appreciate it if you wrote the number followed by its unit.

compound	system	MIC
CCC1OC(=O)C(C)C(=O)C(C)C(OC2OC(C)CC(N(C)C)C2O)C(C)(OC)CC(C)C2=NC(CCOc3ccccc3)CN3C(=O)OC1(C)C3C2C (stereo not shown)	STREPTOCOCCUS PYOGENES PIU 2548	0.39 µg/mL
CC[C@H]1OC(=O)[C@H](C)C(=O)[C@H](C)[C@@H](O[C@@H]2O[C@H](C)C[C@H](N(C)C)[C@H]2O)[C@](C)(OC)C[C@@H](C)C2=NC3CN(CC)CC3N3C(=O)O[C@@]1(C)[C@H]3[C@H]2C (stereo partly shown)	STREPTOCOCCUS PYOGENES PIU 2548	0.78 µg/mL

Incoming: Could you share which MIC value was measured for CC[C@H]1OC(=O)[C@H](C)C(=O)[C@H](C)[C@@H](O[C@@H]2O[C@H](C)C[C@H](N(C)C)[C@H]2O)[C@](C)(OC)C[C@@H](C)C2=N[C@H](COCc3ccc(Br)cc3)CN3C(=O)O[C@@]1(C)[C@H]3[C@H]2C ?
Outgoing: 0.05 µg/mL

Incoming: Look up MIC for this compound: CC[C@H]1OC(=O)[C@H](C)C(=O)[C@H](C)[C@@H](O[C@@H]2O[C@H](C)C[C@H](N(C)C)[C@H]2O)[C@](C)(OC)C[C@@H](C)C2=N[C@H](COCc3ccc(Cl)cc3)CN3C(=O)O[C@@]1(C)[C@H]3[C@H]2C
Outgoing: 0.39 µg/mL

----------
# Lookup of reported MIC keyed by entry
- System: STAPHYLOCOCCUS AUREUS CMX 642A
- test.protocol: In vitro antibacterial activity, MIC, BHI agar dilution
- Assay type: cell-based
- condition.context: S. aureus CMX 642A, unit assumed
Supply the numeric figure in µg/mL, leaving out any unit text.

molecule	recorded.value
CC[C@H]1OC(=O)[C@H](C)C(=O)[C@H](C)[C@@H](O[C@@H]2O[C@H](C)C[C@H](N(C)C)[C@H]2O)[C@](C)(OC)C[C@@H](C)C2=N[C@H](COCc3cc(C)c4ccccc4n3)CN3C(=O)O[C@@]1(C)[C@H]3[C@H]2C	0.2

Incoming: # query: MIC of entry CCC1OC(=O)C(C)C(=O)C(C)C(OC2OC(C)CC(N(C)C)C2O)C(C)(OC)CC(C)C2=NC(COCSC)CN3C(=O)OC1(C)C3C2C (stereo not shown)
Outgoing: 0.39

Incoming: Which measured MIC value corresponds to CC[C@H]1OC(=O)[C@H](C)C(=O)[C@H](C)[C@@H](O[C@@H]2O[C@H](C)C[C@H](N(C)C)[C@H]2O)[C@](C)(OC)C[C@@H](C)C2=NC[C@H](C)N3C(=O)O[C@@]1(C)[C@H]3[C@H]2C ?
Outgoing: 0.78

Incoming: What does the record list as MIC for CC[C@H]1OC(=O)[C@H](C)C(=O)[C@H](C)[C@@H](O[C@@H]2O[C@H](C)C[C@H](N(C)C)[C@H]2O)[C@](C)(OC)C[C@@H](C)C2=NC[C@@H](COCc3ccccc3)N3C(=O)O[C@@]1(C)[C@H]3[C@H]2C ?
Outgoing: 0.1

----------
- System: STREPTOCOCCUS BOVIS A-5169
- test.protocol: In vitro antibacterial activity, MIC, BHI agar dilution
- Format: cell-based
- condition.context: S. bovis A-5169, unit assumed
# reported MIC; entries follow
State the answer as a number, implicitly in µg/mL.

compound	system	MIC / µg/mL
CCC1OC(=O)C(C)C(=O)C(C)C(OC2OC(C)CC(N(C)C)C2O)C(C)(OC)CC(C)C2=NC(c3ccccc3)C(c3ccccc3)N3C(=O)OC1(C)C3C2C (stereo not shown)	STREPTOCOCCUS BOVIS A-5169	0.2

Kindly review the next compound as well.
Incoming: Which MIC reading was recorded for the compound CC[C@H]1OC(=O)[C@H](C)C(=O)[C@H](C)[C@@H](O[C@@H]2O[C@H](C)C[C@H](N(C)C)[C@H]2O)[C@](C)(OC)C[C@@H](C)C2=NC(COCc3ccc(Cl)cc3)C(COCc3ccc(Cl)cc3)N3C(=O)O[C@@]1(C)[C@H]3[C@H]2C (stereo partly shown) ?
Outgoing: 0.2
